I'd appreciate it if you could supply inhibition at 0.1 µM values for the items below.
- target_of_assay: P2X7 receptor (Homo sapiens)
- Construct: host or cells: THP-1 cells differentiated with LPS and IFN-γ
- Sequence (Q99572 1-595): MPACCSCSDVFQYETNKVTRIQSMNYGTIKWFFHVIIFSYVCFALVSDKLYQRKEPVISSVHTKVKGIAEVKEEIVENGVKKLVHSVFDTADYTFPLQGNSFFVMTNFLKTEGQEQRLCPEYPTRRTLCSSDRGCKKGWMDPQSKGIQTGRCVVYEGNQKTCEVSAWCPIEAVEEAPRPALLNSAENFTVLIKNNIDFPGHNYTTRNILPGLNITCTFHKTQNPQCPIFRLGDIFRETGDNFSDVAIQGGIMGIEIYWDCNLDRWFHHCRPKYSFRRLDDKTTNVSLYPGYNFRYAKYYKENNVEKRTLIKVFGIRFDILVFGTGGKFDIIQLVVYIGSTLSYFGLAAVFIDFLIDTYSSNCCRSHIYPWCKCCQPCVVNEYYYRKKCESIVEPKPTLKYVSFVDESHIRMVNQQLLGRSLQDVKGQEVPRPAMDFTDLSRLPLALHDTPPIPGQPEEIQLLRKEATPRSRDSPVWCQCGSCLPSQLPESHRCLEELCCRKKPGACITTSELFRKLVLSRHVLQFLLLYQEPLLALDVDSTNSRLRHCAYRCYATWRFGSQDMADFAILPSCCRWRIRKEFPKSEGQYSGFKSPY
- measurement_description: IL-1β release assay (BzATP-stimulated, LPS/IFN-γ differentiated THP-1 cells, ELISA)
- Format: cell-based
- test_parameters: at 0.1 μM (asterisk symbols)

Problem: Write down inhibition at 0.1 µM measured for item CC1CNC(CN2CCc3c(NC(=O)CC45CC6CC(CC(C6)C4)C5)cccc3C2=O)CN1 (stereo not drawn) [Compound 806]
Result: ≥ 75%

Problem: Write down inhibition at 0.1 µM measured for item CN(C)CCN1CCc2c(NC(=O)CC34CC5CC(CC(C5)C3)C4)cccc2C1=O [Compound 800]
Result: 50 to 75%

Problem: Write down inhibition at 0.1 µM measured for item CC12CC3CC(C)(C1)CC(CC(=O)Nc1cccc4c(=O)n(Cc5ccc6c(c5)OCCO6)ccc14)(C3)C2 [Compound 803]
Result: ≥ 75%

Problem: Write down inhibition at 0.1 µM measured for item CC(C)C(CO)n1ccc2c(NC(=O)CC34CC5CC(CC(C5)C3)C4)cccc2c1=O (stereo not drawn) [Compound 887]
Result: ≥ 75%

Problem: Write down inhibition at 0.1 µM measured for item O=C(CC12CC3CC(CC(C3)C1)C2)Nc1cccc2c(=O)n(Cc3ccoc3)ccc12 [Compound 873]
Result: ≥ 75%

Problem: Write down inhibition at 0.1 µM measured for item Cc1cc(CN2CCc3c(NC(=O)CC45CC6CC(CC(C6)C4)C5)cccc3C2=O)nn1C [Compound 797]
Result: ≥ 75%
